Each recorded value in this set is attributed to ChEMBL document CHEMBL1123614.

compounds and their reported Concentration
Species: Rattus norvegicus
Assay: Reduction of Astrocyte intracellular chloride concentration at 0.05 mM.
Type: functional, organism-based
Details: 0.05 mM

structure.as.smiles	units.text	Concentration
CCCN1C(=O)c2ccc(OCCCC(=O)O)cc2C1=O	%	80
O=C(O)COc1ccc2c(c1)C(=O)N(C1CCCC1)C2=O	%	92
O=C(O)CCCOc1ccc2c(c1)C(=O)N(CCCCO)C2=O	%	101
O=C(O)CCCOc1ccc2c(c1)C(=O)NC2=O	%	88
CCCCN1C(=O)c2ccc(OCCCC(=O)O)cc2C1=O	%	69
O=C(O)CCCOc1ccc2c(c1)C(=O)N(CCCO)C2=O	%	83
